Source listed as patent US9955691B2.

Collected pest or weed control at 121.5 g/ha values appear next to each entry.
Test system: Mycosphaerella graminicola; Anamorph: Septoria tritici
Test Summary: Fungicidal activity: Leaf Blotch of Wheat (SEPTTR)
Assay type: in vivo
Experimental Parameters: Zymoseptoria tritici, 24 h; Low Volume (121.5 g/H), 1 Day Protectant, wheat leaf blotch; read-out: SEPTTR 1 DP disease control
Measured Property: pest or weed control at 121.5 g/ha

1. COCCC(=O)Oc1c(OC)ccnc1C(=O)N[C@H]1COC[C@H](Cc2ccc(Cl)cc2)[C@@H](C2CCCC2)[C@H](C)OC1=O
> 70%
2. CCOCC(=O)OCOc1c(OC)ccnc1C(=O)N[C@H]1COC[C@H](Cc2ccc(Cl)cc2)[C@@H](C2CCCC2)[C@H](C)OC1=O
> 70%
3. CCOCC(=O)OCOc1c(OC)ccnc1C(=O)N[C@H]1COC[C@H](Cc2ccccc2)[C@@H](CC(C)C)[C@H](C)OC1=O
> 70%
4. CCCC[C@@H]1[C@@H](Cc2ccc(C(F)(F)F)cc2)COC[C@H](NC(=O)c2nccc(OC)c2OCOC(C)=O)C(=O)O[C@H]1C
> 70%
5. COc1ccnc(C(=O)N[C@H]2COC[C@H](Cc3ccc(C(F)(F)F)cc3)[C@@H](Cc3ccc(OC(F)(F)F)cc3)[C@H](C)OC2=O)c1OCOC(C)=O
> 70%
6. COc1ccnc(C(=O)N[C@H]2COC[C@H](Cc3ccc(Cl)cc3)[C@@H](Cc3ccccc3)[C@H](C)OC2=O)c1OCOC(C)=O
> 70%
7. COc1ccnc(C(=O)N[C@H]2COC[C@H](Cc3ccc(Cl)cc3)[C@@H](Cc3ccc(OC(F)(F)F)cc3)[C@H](C)OC2=O)c1OC(C)=O
< 70%
8. COc1ccnc(C(=O)N[C@H]2COC[C@H](Cc3ccccc3)[C@@H](Cc3ccc(OC(F)(F)F)cc3)[C@H](C)OC2=O)c1OCOC(C)=O
> 70%
9. COc1ccnc(C(=O)N[C@H]2COC[C@H](Cc3ccc(C(F)(F)F)cc3)[C@@H](CC(C)C)[C@H](C)OC2=O)c1OC(C)=O
> 70%

====

Tested on: Mycosphaerella graminicola; Anamorph: Septoria tritici
Test Summary: Fungicidal activity: Leaf Blotch of Wheat (SEPTTR)
Assay type: in vivo
Experimental Parameters: Zymoseptoria tritici, 24 h; High Volume (100 ppm), 1 Day Protectant, wheat leaf blotch; read-out: SEPTTR 1 DP disease control
Measured Property: pest or weed control at 100 µg/mL

1) CCC[C@H]1COC[C@H](NC(=O)c2nccc(OC)c2O)C(=O)O[C@@H](C)[C@@H]1Cc1ccc(F)cc1
> 70%
2) CCCC[C@@H]1[C@@H](Cc2ccccc2)COC[C@H](NC(=O)c2nccc(OC)c2OCOC(C)=O)C(=O)O[C@H]1C
< 70%
3) COc1ccnc(C(=O)N[C@H]2COC[C@H](Cc3ccc(Cl)cc3)[C@@H](Cc3ccccc3)[C@H](C)OC2=O)c1O
> 70%
4) COc1ccnc(C(=O)N[C@H]2COC[C@H](Cc3ccccc3)[C@@H](Cc3ccccc3)[C@@H](C)OC2=O)c1OCOC(C)=O
< 70%
5) COc1ccnc(C(=O)N[C@H]2COC[C@H](Cc3ccc(C(F)(F)F)cc3)[C@@H](Cc3ccc(OC(F)(F)F)cc3)[C@H](C)OC2=O)c1O
< 70%
6) COc1ccnc(C(=O)N[C@H]2COC[C@H](Cc3ccccc3)[C@@H](Cc3ccc(F)cc3)[C@H](C)OC2=O)c1O
> 70%
7) COc1ccnc(C(=O)N[C@H]2COC[C@H](Cc3ccccc3)[C@@H](CC(C)C)[C@H](C)OC2=O)c1O
< 70%
8) CCC[C@H]1COC[C@H](NC(=O)c2nccc(OC)c2O)C(=O)O[C@@H](C)[C@@H]1CC(C)C
< 70%
